Field: melting point. Provide a value for each of the compounds that follow.

# compound, melting point
rows = [
    ("CCc1cc2c(=O)c(C(=O)O)cn(Cc3ccc(-c4ccccc4-c4nnn[nH]4)cc3)c2s1", "153 to 157 °C"),
    ("Nc1c(Cl)cc(C(O)CNCCCCCOCCc2ccccn2)cc1Cl (stereo not given)", "140 to 142 °C"),
    ("CC(C)(C)OC(=O)N1C[C@@H]2CC1CN2c1cncc(Br)c1", "149 °C"),
    ("CC#CCOc1cc(OCc2cccc(F)c2F)ncn1", "84.9 °C"),
]

According to the records, this compound CC(C)c1cccc(C(C)C)c1NC(=O)NS(=O)(=O)Cl displays melting point of 130 to 134 °C

---

property_measured: melting point

Here are 3 molecules together with their reported answers.
# molecule, melting point
measured = [
    ("CN(C)CCCN=Cc1ccc2ccccc2c1", "29 to 31 °C"),
    ("Cc1ccc(CC(CC(=O)N2CC3CCCCC3C2)C(=O)O)cc1 (configuration not stated)", "133 to 134 °C"),
    ("CCC(CC)Cn1c(=O)c(=O)[nH]c2ccc(NC(C)=O)cc21", "168 to 170 °C"),
]

Hey, can you go through the list below and give me melting point for every item?
1. CCCCCCCCCCCCCCCCNc1ccc(C(=O)OC)cc1
2. Cc1nc(N2CCN(CC3CC3)C2=O)sc1C(=O)NCc1ncccc1F
3. Cc1cc2sc3ncc(C(=O)Nc4nnn[nH]4)c(=O)n3c2cc1C
4. Cc1cccc(C)c1NCCNCC(O)COc1cccc2[nH]ncc12 (configuration not stated)
5. COc1ccc(-c2c(Cl)c(CN3C(=O)CCC3=O)nc3sc4c(c23)CCN(Cc2ccccc2)C4)cc1
6. O=C(Nc1cccc(-c2ccnc3c(C(=O)c4cccs4)cnn23)c1)OCc1ccccn1
7. O=C(O)CNC(=O)NCCCCC1CCSS1 (configuration not stated)
8. CCC1(C)NC(=O)C(CCSC)O1 (configuration not stated)

Result:
["74 to 75 °C", "142 to 144 °C", "> 300 °C", "127 to 128 °C", "241 to 243 °C", "121 to 125 °C", "95 to 96 °C", "62 °C"]

Hey, can you go through the list below and give me melting point for every item?
1. CN1c2ccccc2-c2nc3ccccc3c3cccc1c23
2. CS(=O)(=O)c1ccc(-c2cnn(-c3ccc(C(=O)n4cccc4)cc3)c(=O)c2-c2ccc(F)cc2)cc1
3. ClCOc1ccc(-c2ccc(Cl)cc2)cc1
4. CCOC(=O)[C@@H](O)[C@@H]1OC(=O)c2cc(OC)c(OC)cc21
5. Cc1ccc2c(NCc3ccc(NC(=O)c4ccc(F)cc4)cc3)nc(NCCc3ccccn3)nc2c1
6. CCN(CC)C(=O)c1cc2ccc(C)cc2c(-c2ccccc2Cl)n1

Result:
212 to 214 °C
229 to 231 °C
68 to 70 °C
144 to 146 °C
112 to 115 °C
162 °C

Hey, can you go through the list below and give me melting point for every item?
1. Cc1cccc(CC(NC(=O)C(c2ccccc2)c2ccccc2)C(=O)NC(C#N)COCc2cccc(C(=O)O)c2)c1 (configuration not stated)
2. CC(ON=c1c2nccc3cccc(c32)n2cccc12)C(=O)O (configuration not stated)
3. Nc1scc2c1c(=O)oc1ccc3ccccc3c12
4. CSc1ccc2c(c1)CC(C)(C)C(=O)N2
5. CC(=O)Oc1ccc(-c2nc3c(N)nc(N)nc3nc2N)cc1
6. CC1CCc2c(c3c(O)cc(C(C)CCCc4ccc(F)cc4)cc3oc2=O)C1 (configuration not stated)
7. O=C(OC1CCN(Cc2cccc([N+](=O)[O-])c2)CC1)c1ccccc1

Result:
["160 to 162 °C", "225 °C", "221 to 222 °C", "154 °C", "319 to 321 °C", "127 to 129 °C", "54 to 55 °C"]

---

Field: melting point. Provide a value for each of the compounds that follow.

# compound, melting point
measured = [
    ("CCCCCCCCCCCCCCCCNC(=O)Nc1sc(C(=O)O)c(C)c1C(=O)OC(C)(C)C", "188 to 189 °C"),
    ("O=C(Nc1nc(=O)n(S(=O)(=O)c2ccccc2)cc1F)c1ccccc1", "150 to 151 °C"),
    ("CCCCCCN(CCCCCC)c1ccc(C=CC2=C(C#N)C(=C(C#N)C#N)OC2(C)C)s1", "172 °C"),
]

Hey, can you go through the list below and give me melting point for every item?
1. CCN(CC)c1ccc2c(c1)O/C(=C1/Oc3cc(N(CC)CC)ccc3C1=O)C2=O
2. N#Cc1ccc(Cn2cncc2CCNC(=O)[C@H]2CN(Cc3ccccc3)CCN2C(=O)CC2CCN(C(N)=O)CC2)cc1
3. N#Cc1ccc(N2C(=O)NC(=Cc3ccccc3O)C2=O)c2ccccc12
4. O=C(CCCBr)N1CC(c2ccc(Cl)cc2)Sc2ccccc21 (stereo not given)

Result:
1. 292 °C
2. 118 °C
3. 146 to 149 °C
4. 91 to 92 °C

---

Field: melting point. Provide a value for each of the molecules that follow.

Here are 5 molecules together with their reported answers.
# molecule, property_measured, recorded_result
rows = [
    ("Nc1ccc(C#CCCN2CC=C(c3ccccc3)CC2)nc1", "melting point", "136 to 137 °C"),
    ("CCN1CCN(C(=O)c2ccc(-c3cc(-c4n[nH]cc4-c4cccc(C)n4)ccn3)cc2)CC1", "melting point", "126 °C"),
    ("Nc1ncnc2c1c(-c1ccc(Oc3ccccc3)cc1)cn2C1CCCC1", "melting point", "178 to 179 °C"),
    ("CCn1nc(OC2CSCCC2=O)c(-c2ccc(F)cc2)c1-c1ccc(S(C)(=O)=O)cc1 (stereo not given)", "melting point", "210 to 211 °C"),
    ("COc1ccccc1NC(=S)c1ccc(C)cc1", "melting point", "91 to 93 °C"),
]

Hey, can you go through the list below and give me melting point for every item?
1. Oc1cccc(CC2c3ccccc3CCc3ccccc32)c1
2. CCOc1cccc(NC(=O)Nc2ccc(N3CCN(C(=O)Nc4cc(OCCO)ccc4Cl)CC3)nc2)c1
3. CCOC(=O)c1cn(C2CC2)c2nc(N3CCC(n4ccnn4)CC3)c(F)cc2c1=O
4. CN1CCC(O)(CNC=O)CC1
5. CN1C(=O)CC(=O)N(c2ccccc2)c2cc(Cl)ccc21

Result:
1: 76.6 °C; 2: 140 to 143 °C; 3: 213 to 214 °C; 4: 116 to 122 °C; 5: 166 to 168 °C

---

Field: melting point. Provide a value for each of the molecules that follow.

# molecule, property_measured, recorded_result
measured = [
    ("COC(=O)COc1ccc(C(C)=O)c2ccccc12", "melting point", "123 to 125 °C"),
]

Hey, can you go through the list below and give me melting point for every item?
1. COc1ccc2c(c1)c(C1CCN(CCOc3ccccc3C(=O)O)CC1)cn2Cc1cccs1
2. CCC(CC)(CC(=O)Nc1cccc(OCc2ccc3ccc(OC)cc3n2)c1)C(=O)O
3. COC(=O)c1ccc(N2CCCC2CO)cc1N (stereo not given)
4. CCOC(=O)c1cn(-c2c(OCc3ccccc3)cccc2OCc2ccccc2)cn1
5. COc1ccc(-c2nnc3c4ccccc4c(Nc4ccc(NC(=O)c5ccc(N6CCOCC6)cc5)cc4)nn23)cc1
6. COc1ccc(-c2csc(C)n2)cc1OC1CC2CCC1C2 (stereo not given)
7. OCCc1cc2c(cc1Cc1ccccc1)OCO2

Result:
1: 150 to 151 °C; 2: 96 to 97 °C; 3: 113 to 115 °C; 4: 125 to 126 °C; 5: 313 °C; 6: 81 to 82 °C; 7: 64 to 65 °C

Hey, can you go through the list below and give me melting point for every item?
1. CCCCN1C(=O)NC(=Cc2ccc(C=O)cc2)C1=O
2. COc1cccc(Cl)c1C(O)C(N)=O (stereo not given)
3. N#Cc1cccc(-c2nc(Nc3ccc(C(=O)O)cc3)sc2-c2ccnnc2)c1
4. COc1ccc(-c2cc(-c3ccccc3)[nH]c2C(=O)NCc2ccc(C(=O)NO)cc2)cc1

Result:
["180 °C", "116 to 118 °C", "> 275 °C", "187 to 188 °C"]

Hey, can you go through the list below and give me melting point for every item?
1. Cc1ncc(C=O)c(N)n1
2. O=C(O)Cc1ccc(OCCNC(=O)C2Cc3ccccc3N2S(=O)(=O)c2ccc(-c3cc(C(F)(F)F)ccc3Cl)cc2)c(F)c1 (stereo not given)
3. Cc1ccc(C(=O)Nc2ccc(CN3CCCC3)c(C(F)(F)F)c2)cc1-c1ccc2cnncc2c1
4. Clc1ncnc2c1ncn2C1CC=CC1

Result:
1. 191 to 192 °C
2. 100 °C
3. 168 to 170 °C
4. 56 to 58 °C

Hey, can you go through the list below and give me melting point for every item?
1. CN1CCCC(COc2ccc(C(=O)NN)cc2)C1 (stereo not given)
2. CCC(=O)c1cnccn1
3. O=C1NCCCc2cc(CCN3CCC(c4noc5cc(F)ccc45)CC3)sc21
4. O=C(Nc1ccc(-n2nc(C(F)(F)F)cc2C(F)(F)F)cc1-n1nc(C(F)(F)F)cc1C(F)(F)F)c1ccc(F)cc1F

Result:
1: 170 to 172 °C; 2: 46 to 47 °C; 3: 192 to 194 °C; 4: 114 to 115 °C
